# Test system: female obese Zucker rats
# Test Protocol: Serum lipid and glycemic control variables in chow-fed obese female Zucker rats, daily oral gavage for two weeks
# Assay type: in vivo, rat
# Condition Context: Rattus norvegicus, 336 h; 100 mg/kg daily oral, 2 wk; 100% = 2-fold increase; Table 8; read-out: TG, Percent Change from Pre-Treatment
I would appreciate it if you labelled entries MET when change in vivo at 100 mg/kg is -60% or higher, otherwise NOT MET.

Below, 4 molecules whose answers are already recorded.
Ask | Hello, I need to know if CC(C)(CCCCCCCC(=O)CCCCCCCC(C)(C)C(=O)O)C(=O)O [Compound 107n] has measured change in vivo at 100 mg/kg not below -60%. Thanks!
Reply | NOT MET

Ask | Now give it for O=C(CCCCCC1(C(=O)O)CCCC1)CCCCCC1(C(=O)O)CCCC1 [Compound 107m] too.
Reply | MET

Ask | Subsequent entry: CC(C)(CCCCC(=O)CCCCC1(C(=O)O)CC1)C(=O)O [Compound 107c]
Reply | NOT MET

Ask | Input O=C(CCCCCC1(C(=O)O)CC1)CCCCCC1(C(=O)O)CC1 [Compound 107l]
Reply | NOT MET

***
Ask | Determine whether this molecule has change in vivo at 100 mg/kg no lower than -60%: O=C(CCCCC1(C(=O)O)CC1)CCCCC1(C(=O)O)CC1 [Compound 107d]
Reply | MET

Ask | Follow-up entry: CC(C)(CCCCCC(=O)CCCCCC1(C(=O)O)CC1)C(=O)O [Compound 107k]
Reply | NOT MET

Ask | Lookup O=C(CCCCC1(C(=O)O)CCCC1)CCCCC1(C(=O)O)CCCC1 [Compound 107g]
Reply | NOT MET

Ask | Please answer likewise for CC(C)(CCCCC(=O)CCCCC1(C(=O)O)CCC1)C(=O)O [Compound 107e]
Reply | MET

====

# System: female obese Zucker rats
# Test Protocol: Serum lipid and glycemic control variables in chow-fed obese female Zucker rats, daily oral gavage for two weeks
# Assay type: in vivo, rat
# Condition Context: Rattus norvegicus, 336 h; 100 mg/kg daily oral, 2 wk; 100% = 2-fold increase; Table 8; read-out: HDL-Cholesterol, Percent Change from Pre-Treatment
Reported Endpoint: change in vivo at 100 mg/kg (%)
Kindly answer with a numeric value in %, unit omitted.

Sample answers from the record:
Ask | Request - read-out change in vivo at 100 mg/kg | tested on female obese Zucker rats | compound CC(C)(CCCCC(=O)CCCCC1(C(=O)O)CCC1)C(=O)O [Compound 107e]
Reply | 60

Ask | Okay, and O=C(CCCCCC1(C(=O)O)CC1)CCCCCC1(C(=O)O)CC1 [Compound 107l] ?
Reply | 171

***
Ask | State its change in vivo at 100 mg/kg on female obese Zucker rats: O=C(CCCCC1(C(=O)O)CC1)CCCCC1(C(=O)O)CC1 [Compound 107d]
Reply | 260

Ask | Next up: CC(C)(CCCCC(=O)CCCCC1(C(=O)O)CC1)C(=O)O [Compound 107c]
Reply | 248

====

# Tested on: female obese Zucker rats
# Test Protocol: Serum lipid and glycemic control variables in chow-fed obese female Zucker rats, daily oral gavage for two weeks
# Assay type: in vivo, rat
# Condition Context: Rattus norvegicus, 168 h; 30 mg/kg daily oral, 1 wk; Table 9; read-out: HDL-Cholesterol, Percent Change from Pre-Treatment
Some compounds, each annotated with its measured change in vivo at 30 mg/kg.
Value expressed in %; do not type the unit.

The cases that follow already have their change in vivo at 30 mg/kg on record.
Ask | Recorded change in vivo at 30 mg/kg of CC(C)(CO)CCCCC(=O)CCCCC(C)(CO)c1ccccc1 (centres unmarked) [Compound 218] , please.
Reply | -18

Ask | Would you kindly repeat that for CC(CO)(CCCCC(=O)CCCCC(C)(CO)c1ccccc1)c1ccccc1 (centres unmarked) [Compound 214d] ?
Reply | -1

Ask | Queued: Cc1ccc(C(C)(CCCCC(=O)CCCCC(C)(C(=O)O)c2ccc(C)cc2)C(=O)O)cc1 (centres unmarked) [Compound 210e]
Reply | 0

Ask | Would you mind doing CC(C)(CCCCC(=O)CCCC(C)(C)C(=O)O)C(=O)O [Compound 225] as well?
Reply | 7

---
Ask | I would be grateful if you could share the reported change in vivo at 30 mg/kg for CC(C)(CO)CCCCCCC(=O)CCCCCCC(C)(C)CO [Compound 214i] .
Reply | 85
